So I've got a bunch of molecules here, and I need their IC50 values.
- measured target: LPAR1 (Homo sapiens, UniProt Q92633)
- Construct: host or cells: U2OS
- Sequence (Q92633 whole entry): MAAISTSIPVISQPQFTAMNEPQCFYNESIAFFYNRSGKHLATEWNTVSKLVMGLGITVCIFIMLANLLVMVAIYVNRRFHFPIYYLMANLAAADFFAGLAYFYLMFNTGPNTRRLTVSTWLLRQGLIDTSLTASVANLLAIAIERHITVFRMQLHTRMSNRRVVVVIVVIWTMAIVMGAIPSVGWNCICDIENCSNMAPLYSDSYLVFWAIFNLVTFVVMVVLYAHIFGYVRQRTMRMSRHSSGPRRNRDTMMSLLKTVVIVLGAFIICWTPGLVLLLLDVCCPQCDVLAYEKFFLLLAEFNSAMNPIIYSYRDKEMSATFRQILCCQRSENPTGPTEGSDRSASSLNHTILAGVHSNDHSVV
- method summary: IP-One HTRF Assay
- Assay type: cell-based
- stated conditions: U2OS cells stably expressing LPAR1; LPA stimulation; IP-One Tb HTRF kit
Give your result in nM as a bare value.

Data request: State the recorded IC50 for this entry: `COc1cc(C(=O)N(CCCc2ccccc2)CC(=O)NC2(C(=O)O)Cc3ccccc3C2)cc(OC)c1C`
Data returned: 1210

Data request: Please report the recorded IC50 for COc1cc(C(=O)N(CCCc2ccccc2)CCCC(C)(O)C(=O)O)cc(OC)c1C (stereo not drawn) .
Data returned: 663

Data request: Please look up its IC50: `COc1cc(C(=O)N(CCCc2ccccc2)CCOCC(=O)NS(C)(=O)=O)cc(OC)c1C`
Data returned: 920
